- target: T1, HLA-DRB1*0901 (human)
- T1 chain 1: not shown
- T1 chain 2: not shown
testReadout: IC50 (nM)
# number only, unit nM dropped from output

In: Requested field: IC50. Item: AKFVAAWTLKAAA (modifications not checked) [standard peptide …]
Out: 75
